Where do these numbers come from? They come from the nanobody polyreactivity screen of Harvey et al. (2022).

ASSAY_NOTES: yeast display, Sf9 membrane polyspecificity reagent, FACS + sequencing; frameworks hold sequencing errors
MEASURED_PARAMETER: polyreactivity (PSR sort gate)

Recorded results for 4 sequences are shown here.
QVQLVESGGGLVQAGGSLRLSCAASGFTFPDYAMGWYRQAPGKERELVAAISSDGSTYYADSVKGRFTISRDNAKNTVYLQMNSLKPEDTAVYYCAAYVVWLYGYDYWGQGTKVTVSS | low polyreactivity
QVHLVESGGGLVQAGGCLRLSCAASGSIVGYNTMGWYRQAPGKERALVAAISSSGTSTNYPDSVKGRFTISRDNAKNTVYLQMNSLKPDDTAVFYCNTVLRVWSRSGYDYWGQGSQVTVSS | high polyreactivity
QVQLVESGGGLVQAGRSLRLSCAASGRIFRFKTMGWYRQSPGKERELVAAITYSGGGTYYADSVKGRFTISRDNAKNTVYLQMNSLKPEDTAVYYCAATLYLRTIDDYWGQGTQVTVSS | high polyreactivity
QVQLVESGGGLVQAGGSLRLSCAASGSTFAQYAMGWYRQPPRKERELVAAISRRGASTYYADSVKGLFTISRDIAKNTVYLQMNSLKPEDTAVYYCNAVRGEKMGYWGQGTQVTVSS | high polyreactivity

Which measured polyreactivity (PSR sort gate) value corresponds to QVQLVESGGGLVQAGGSLRLSCAASGSTFYFYDMGWYRQAPGKERELVATIDDGGGSTYYADSVKGRFTISRDNAKNTVYLQMNSLKPEDTAVYYCNADDSEYLIYDYWGQGTQVTVSS ?
low polyreactivity
